Measured values drawn from ChEMBL document CHEMBL1127553 for this set.

# Tested on: CHO
# METHOD NOTES: Sensitization of colchicine treated parental (PAR)CHO cells, measured at concentration 0.1(mg/L)
# Type: functional, Cricetulus griseus
Non-standard residues stand in square brackets, D forms with d. Residues, ends and D or L forms follow the SMILES beside them. *: point of attachment. NMeI = CC[C@H](C)[C@H](NC)C(=O)O; NMeD = CN[C@@H](CC(=O)O)C(=O)O; NMeV = CN[C@H](C(=O)O)C(C)C; Pip = O=C(O)[C@@H]1CCCCN1; Lac = C[C@H](O)C(=O)O; OtBu = CC(C)(C)O*
REPORTED PROPERTY: Activity

Guide cases for Activity, answers given:
1. CC[C@H](C)[C@H]1C(=O)NCC(=O)N(C)[C@@H](C(C)C)C(=O)N[C@@H](Cc2ccc(OC)cc2)C(=O)O[C@@H](C)C(=O)N2CCCC[C@H]2C(=O)N(C)[C@@H](C(C)C)C(=O)N[C@@H](C(C)C)C(=O)N(C)[C@@H](CC(=O)NC[Si](C)(C)C)C(=O)N(C)[C@@H]([C@@H](C)CC)C(=O)N1C | 7.4
2. CC[C@H](C)[C@H]1C(=O)NCC(=O)N(C)[C@@H](C(C)C)C(=O)N[C@@H](Cc2ccc(O)cc2)C(=O)O[C@H](C)C(=O)N2CCCC[C@H]2C(=O)N(C)[C@@H](C(C)C)C(=O)N[C@@H](C(C)C)C(=O)N(C)[C@@H](CC(=O)OCc2ccccc2)C(=O)N(C)[C@@H]([C@@H](C)CC)C(=O)N1C | 4.4

Batch request: Activity per item, same order as input.
1. CC[C@@H](C)[C@H]1C(=O)NCC(=O)N(C)[C@@H](C(C)C)C(=O)N[C@@H](Cc2ccc(OC)cc2)C(=O)O[C@@H](C)C(=O)N2CCCC[C@H]2C(=O)N(C)[C@@H](C(C)C)C(=O)N[C@@H](C(C)C)C(=O)N(C)[C@H](CC(=O)NC23CC4CC(CC(C4)C2)C3)C(=O)N(C)[C@@H]([C@@H](C)CC)C(=O)N1C
2. CC[C@H](C)[C@H]1C(=O)NCC(=O)N(C)[C@@H](C(C)C)C(=O)N[C@@H](Cc2ccc(OC)cc2)C(=O)O[C@@H](C)C(=O)N2CCCC[C@H]2C(=O)N(C)[C@@H](C(C)C)C(=O)N[C@@H](C(C)C)C(=O)N(C)[C@@H](CC(=O)OC(C)(C)C)C(=O)N(C)[C@@H]([C@@H](C)CC)C(=O)N1C (cyclo(G[NMeV]Y(Me)[Lac][Pip][NMeV]V[NMeD](OtBu)[NMeI][NMeI]))
3. CC[C@H](C)[C@H]1C(=O)N(C)[C@@H]([C@@H](C)CC)C(=O)NCC(=O)N(C)[C@@H](C(C)C)C(=O)N[C@@H](Cc2ccc(OC)cc2)C(=O)O[C@H](C)C(=O)N2CCCC[C@H]2C(=O)N(C)[C@@H](C(C)C)C(=O)N[C@@H](C(C)C)C(=O)N(C)[C@H](CN(C)C(C=O)C/C=C/C(=O)OC(C)(C)C)C(=O)N1C (stereo partly specified)
4. CC[C@H](C)[C@H]1C(=O)NCC(=O)N(C)[C@@H](C(C)C)C(=O)N[C@@H](Cc2ccc(OC)cc2)C(=O)O[C@H](C)C(=O)N2CCCC[C@H]2C(=O)N(C)[C@@H](C(C)C)C(=O)N[C@@H](C(C)C)C(=O)N(C)[C@@H](CC(=O)OC2C3CC4CC(C3)CC2C4)C(=O)N(C)[C@@H]([C@@H](C)CC)C(=O)N1C (stereo partly specified)

Marked response:
1: 7.7; 2: 5.4; 3: 7.6; 4: 3.4

====

# Test system: CHO
# METHOD NOTES: The sensitizing capacity for colchicine treatment of parental (PAR)CHO cells at concentration 1.0 (mg/L)
# Format: functional, Cricetulus griseus
REPORTED PROPERTY: Activity

1. CC[C@H](C)[C@H]1C(=O)NCC(=O)N(C)[C@@H](C(C)C)C(=O)N[C@@H](Cc2ccc(OC)cc2)C(=O)O[C@H](C)C(=O)N2CCCC[C@H]2C(=O)N(C)[C@@H](C(C)C)C(=O)N[C@@H](C(C)C)C(=O)N(C)[C@@H](CC(=O)OC2C3CC4CC(C3)CC2C4)C(=O)N(C)[C@@H]([C@@H](C)CC)C(=O)N1C (stereo not given in full) | 6.1

// batch mode: one Activity value per listed entry
1. CC[C@H](C)[C@H]1C(=O)NCC(=O)N(C)[C@@H](C(C)C)C(=O)N[C@@H](Cc2ccc(O)cc2)C(=O)O[C@H](C)C(=O)N2CCCC[C@H]2C(=O)N(C)[C@@H](C(C)C)C(=O)N[C@@H](C(C)C)C(=O)N(C)[C@@H](CC(=O)OCc2ccccc2)C(=O)N(C)[C@@H]([C@@H](C)CC)C(=O)N1C
2. CC[C@H](C)[C@H]1C(=O)NCC(=O)N(C)[C@@H](C(C)C)C(=O)N[C@@H](Cc2ccc(OC)cc2)C(=O)O[C@@H](C)C(=O)N2CCCC[C@H]2C(=O)N(C)[C@@H](C(C)C)C(=O)N[C@@H](C(C)C)C(=O)N(C)[C@@H](CC(=O)OCC23CC4CC(CC(C4)C2)C3)C(=O)N(C)[C@@H]([C@@H](C)CC)C(=O)N1C
3. CC[C@@H](C)[C@H]1C(=O)NCC(=O)N(C)[C@@H](C(C)C)C(=O)N[C@@H](Cc2ccc(OC)cc2)C(=O)O[C@@H](C)C(=O)N2CCCC[C@H]2C(=O)N(C)[C@@H](C(C)C)C(=O)N[C@@H](C(C)C)C(=O)N(C)[C@H](CC(=O)NC(C)(C)C)C(=O)N(C)[C@@H]([C@@H](C)CC)C(=O)N1C

Marked response:
1. 14
2. 7.4
3. 12

Exam item: Name the reported Activity value associated with the molecule CC[C@H](C)[C@H]1C(=O)NCC(=O)N(C)[C@@H](C(C)C)C(=O)N[C@@H](Cc2ccc(OC(C)(C)C)cc2)C(=O)O[C@H](C)C(=O)N2CCCC[C@H]2C(=O)N(C)[C@@H](C(C)C)C(=O)N[C@@H](C(C)C)C(=O)N(C)[C@@H](CC(=O)OC(C)(C)C)C(=O)N(C)[C@@H]([C@@H](C)CC)C(=O)N1C
Marked response: 9
